- Study system: Sushi domains (SD1/2) protein of GABAB1a (GB1a)
- Sequence (Q9Z0U4 29-158): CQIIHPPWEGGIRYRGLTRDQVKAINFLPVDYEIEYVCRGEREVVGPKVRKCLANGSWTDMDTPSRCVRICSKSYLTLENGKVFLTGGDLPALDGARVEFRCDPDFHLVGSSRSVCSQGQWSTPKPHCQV
- Experimental details: FP competition vs TAMRA AJAP-1probe
pKi: −log10 of the molar value. Starred links: 1 amine or outer side, 2 acyl side, 3 side chain; linkers in the order of their positions; H or OH if unused. Non-standard residues stand in square brackets, D forms with d. Tyr(Bzl) = Obtyr, O-benzyl-L-tyrosine, O=C([C@H](Cc1ccc(OCc2ccccc2)cc1)N[*:1])[*:2]; 3Pal = N[C@@H](Cc1cccnc1)C(=O)O
Record Met whenever pKi is at 7 or higher; record Not met when lower.

>  <Binder>
Ac-EDDSWIWWYGADTD-NH2 [peptide 28]

>  <Class>
Met

$$$$
>  <Binder>
Ac-EDDDWIDWYDSDDD-NH2 [peptide 16]

>  <Class>
Met

$$$$
>  <Binder>
Ac-PWYIVWGPTVSRED-NH2

>  <Class>
Not met

$$$$
>  <Binder>
Ac-PWAIVWGPTSSRED-NH2

>  <Class>
Not met

$$$$
>  <Binder>
Ac-ETEFIAWGPTGDPD-NH2

>  <Class>
Met

$$$$
>  <Binder>
Ac-EDDS[Tyr(Bzl)]VWWGGADTD-NH2 (SMILES CC(=O)N[C@@H](CCC(=O)O)C(=O)N[C@@H](CC(=O)O)C(=O)N[C@@H](CC(=O)O)C(=O)N[C@@H](CO)C(=O)N[C@@H](Cc1ccc(OCc2ccccc2)cc1)C(=O)N[C@H](C(=O)N[C@@H](Cc1c[nH]c2ccccc12)C(=O)N[C@@H](Cc1c[nH]c2ccccc12)C(=O)NCC(=O)NCC(=O)N[C@@H](C)C(=O)N[C@@H](CC(=O)O)C(=O)N[C@H](C(=O)N[C@@H](CC(=O)O)C(N)=O)[C@@H](C)O)C(C)C) [EDDS(Obtyr)…]

>  <Class>
Met

$$$$
>  <Binder>
Ac-EDDS[3Pal]VWWGGADTD-NH2 (SMILES CC(=O)N[C@@H](CCC(=O)O)C(=O)N[C@@H](CC(=O)O)C(=O)N[C@@H](CC(=O)O)C(=O)N[C@@H](CO)C(=O)N[C@@H](Cc1cccnc1)C(=O)N[C@H](C(=O)N[C@@H](Cc1c[nH]c2ccccc12)C(=O)N[C@@H](Cc1c[nH]c2ccccc12)C(=O)NCC(=O)NCC(=O)N[C@@H](C)C(=O)N[C@@H](CC(=O)O)C(=O)N[C@H](C(=O)N[C@@H](CC(=O)O)C(N)=O)[C@@H](C)O)C(C)C) [EDDS(3Pal)…]

>  <Class>
Not met

$$$$
